molecular target: Tubulin (Bos taurus, UniProt Q6B856+Q862L2+Q862F3); assay: Inhibition of glutamate-dependent tubulin polymerization at 30 degrees C(0.25 mM MgCl2); assay type: functional
Label TRUE when IC50 is strictly below 3 µM; at or above that, label FALSE.

Exercise: Problem: For the compound CCOc1cc2c(cc1C/C=C/c1ccc(OC)cc1)OCO2 , is IC50 under 3 µM?
Solution: TRUE

Exercise: Further, for CCOc1cc2c(cc1CCc1ccc(OC)cc1)OCO2 ?
Solution: FALSE

Exercise: Further, for COc1ccc(Cc2cc3c(cc2OC)OCO3)cc1 ?
Solution: FALSE

Exercise: Further, for COc1ccc(-c2cc(OC)c(OC)c(OC)c2)cc1O ?
Solution: FALSE

Exercise: Further, for COc1ccc(CCc2cc(OC)c(OC)c(OC)c2)cc1O ?
Solution: TRUE

Exercise: Further, for CCOc1cc2c(cc1/C=C\c1ccc(OC)cc1)OCO2 ?
Solution: FALSE

Exercise: Further, for COc1ccc(Cc2cc(OC)c(OC)c(OC)c2)cc1O ?
Solution: TRUE

Exercise: Further, for COc1ccc(CCc2cc3c(cc2OC)OCO3)cc1 ?
Solution: FALSE

Exercise: Further, for COc1ccc(/C=C/Cc2cc3c(cc2OC)OCO3)cc1 ?
Solution: FALSE

Exercise: Further, for CCOc1cc2c(cc1Cc1ccc(OC)cc1)OCO2 ?
Solution: TRUE

Exercise: Further, for COc1ccc(C(C)c2cc3c(cc2OC)OCO3)cc1 (stereo not drawn) ?
Solution: TRUE

Exercise: Further, for COc1ccc(CCCCc2cc(OC)c(OC)c(OC)c2)cc1O ?
Solution: FALSE

Exercise: Further, for COc1ccc(CCCc2cc3c(cc2OC)OCO3)cc1 ?
Solution: FALSE

Exercise: Further, for COc1ccc(CCCCc2cc3c(cc2OC)OCO3)cc1 ?
Solution: FALSE

Exercise: Further, for CCOc1cc2c(cc1C(C)c1ccc(OC)cc1)OCO2 (stereo not drawn) ?
Solution: TRUE

Exercise: Further, for CCOc1cc2c(cc1CCCc1ccc(OC)cc1)OCO2 ?
Solution: TRUE

Exercise: Further, for COc1c(-c2ccc(OC)c(=O)cc2)ccc(C=O)c1C=O ?
Solution: TRUE

---

Hi there, I'd appreciate the recorded IC50 for every entry that follows.
molecular target: Tubulin (Bos taurus, UniProt Q6B856+Q862L2+Q862F3); assay: Concentration required to inhibit the extent of glutamate-dependent tubulin polymerization by 50% at 37 degrees C(1.0 mM MgCl2); assay type: functional
Kindly provide the numeric value in µM only, without the unit symbol.

Exercise: What IC50 value was documented for this molecule, COc1ccc(Cc2cc(OC)c(OC)c(OC)c2)cc1O ?
Solution: 7.7

Exercise: Further, for COc1ccc(CCCCc2cc(OC)c(OC)c(OC)c2)cc1O ?
Solution: 30

Exercise: Further, for COc1ccc(CCc2cc(OC)c(OC)c(OC)c2)cc1O ?
Solution: 3.5

Exercise: Further, for COc1c(-c2ccc(OC)c(=O)cc2)ccc(C=O)c1C=O ?
Solution: 2.6

Exercise: Further, for COc1ccc(CCCc2cc(OC)c(OC)c(OC)c2)cc1O ?
Solution: 11
